# System: Kuramochi cells labeled with mApple-H2B
# PROTOCOL_SUMMARY: IncuCyte Cell Proliferation Assay
# Format: cell-based
# COND: 72 h
pIC50: −log10 of the molar value.
MEASURED_METRIC: pIC50

# COMPOUND, RESULT
records = [
    ("CNC(=O)[C@@H](NC(=O)C1(C)CN(C(=O)c2cnn(Cc3ccccc3)c2)CC12CN(C(=O)[C@H]1CC1(C)C)C2)[C@@H](C)OCc1ccccc1 (stereo partly drawn) [I-498]", "< 4.70"),
    ("C[C@@H](OCC1CCOCC1)[C@H](NC(=O)[C@@H]1CN(C(=O)c2cncs2)CC12CN(C(=O)[C@H]1CC1(C)C)C2)C(=O)N1CCC[C@H](COC(F)(F)F)C1 [I-327]", "4.70 to 5.30"),
    ("COC1CCN(C(=O)[C@@H](NC(=O)[C@@H]2CN(C(=O)c3cncs3)CC23CN(C(=O)[C@H]2CC2(C)C)C3)[C@@H](C)OCC2CCC(F)(F)CC2)CC1 [I-385]", "≥ 6.30"),
]
